Reference source: the supplement of paper PMC10037445

- Tested on: RAW-Dual
- Assay name: NF-kB SEAP reporter activity, fold change vs agonist alone; cytotoxicity flag (confluency mask): cytotoxic (confluency <70% of control); higher = enhanced NF-kB activity
- Assay context: agonist: Pam3CSK4 (TLR2/1) 0.1 ug/mL
Over roughly 2,900 compounds, “NF-kB SEAP reporter activity, fold change vs agonist alone” has its median near 0.99; the highest 2% begin near 2.6. The list comes from a sample in which the highest values are over-represented; it also holds close analogues and randomly drawn compounds.
Give yes (1) when the value for NF-kB SEAP reporter activity is at least 2. Give no (0) when it is less.

| Compound | Group |
| --- | --- |
| CCC1(O)CC2CN(CCc3c([nH]c4ccccc34)C(C(=O)OC)(c3cc4c(cc3OC)N(C)C3C(O)(C(=O)OC)C(OC(C)=O)C5(CC)C=CCN6CCC43C65)C2)C1.O=S(=O)(O)O (stereo not given) (library stock concentration (final ~1000-fold dilution): 10 mM) | no (0) |
| Cn1cc(-c2ccc(S(=O)(=O)n3ccc(/C=C/C(=O)Nc4ccccc4N)c3)cc2)cn1 (library stock concentration (final ~1000-fold dilution): 10 mM) | yes (1) |
| C=C(Cc1ccccc1Cl)C(=O)OCC (library stock concentration (final ~1000-fold dilution): 10 mM) | no (0) |

Then there is this compound:
Q: Given the entry O=C(NC(NC(=S)Nc1ccc(F)c([N+](=O)[O-])c1)C(Cl)(Cl)Cl)C(c1ccccc1)c1ccccc1 (stereo not given) (library stock concentration (final ~1000-fold dilution): 10 mM) , answer whether its NF-kB SEAP reporter activity meets or surpasses 2.
Result: no (0)

* * *

- System: RAW-Dual
- Assay name: NF-kB SEAP reporter activity, fold change vs agonist alone; higher = enhanced NF-kB activity
- Assay context: library stock concentration (final ~1000-fold dilution): 2 mM; cytotoxicity flag (confluency mask): not cytotoxic; agonist: MPLA (TLR4) […]
In all, about 2,900 compounds were measured (“NF-kB SEAP reporter activity, fold change vs agonist alone”: median about 0.99, highest 2% from about 2.6 on). What follows is part of a selection rich in the highest values, with near analogues and random picks from the rest.
Observed property: NF-kB SEAP reporter activity

Solved cases (6 shown):
| Compound | Observed property | Result |
| --- | --- | --- |
| Cc1cccc(CN2CCN(C(c3ccccc3)c3ccc(Cl)cc3)CC2)c1.Cl.Cl (centres undefined) | NF-kB SEAP reporter activity | 1.15 |
| CC(=O)OC(CC=C(C)C)C1=CC(=O)c2c(O)ccc(O)c2C1=O (centres undefined) | NF-kB SEAP reporter activity | 0.978 |
| CCC(C)n1cc(C)c2c(C(=O)NCc3c(C)cc(C)[nH]c3=O)cc(-c3ccc(N4CCNCC4)nc3)cc21 (centres undefined) | NF-kB SEAP reporter activity | 0.941 |
| COc1cc(N2CCC(N3CCN(C)CC3)CC2)ccc1Nc1ncc(Cl)c(Nc2ccccc2S(=O)(=O)C(C)C)n1 | NF-kB SEAP reporter activity | 0.939 |
| Cn1cc(CC(N)C(=O)O)c2ccccc21 (centres undefined) | NF-kB SEAP reporter activity | 1.05 |
| Cn1cc(-c2cnn3c(N)c(Br)c(C4CCCNC4)nc23)cn1 (centres undefined) | NF-kB SEAP reporter activity | 1.35 |

compound CNC1CN(c2ccc3c(=O)c(C(=O)O)cn(-c4nccs4)c3n2)CC1OC.Cl (centres undefined) , NF-kB SEAP reporter activity observed: 0.968

compound C=CC(=O)Nc1cc(Nc2nccc(-n3cc(CN(C)C)c(-c4ccccc4)n3)n2)c(OC)cc1N1CCOCC1 , NF-kB SEAP reporter activity observed: 1.02

compound Cc1ccc(NCCN(C)CCNc2ccnc3cc(Cl)ccc23)c2c(=O)c3ccccc3sc12 , NF-kB SEAP reporter activity observed: 1.05

compound c1cc(-c2cnn3cc(-c4ccc(OCCN5CCCCC5)cc4)cnc23)ccn1 , NF-kB SEAP reporter activity observed: 1.08
